Ref: PubChem BioAssay AID1963961

- Tested on: K98450-129-R-PDC multicell spheroids, viability
- assayOverview: Anticancer human tumor K98450-129-R-PDC patient-derived colon adenocarcinoma cell line growth inhibition [PI3K]
- condition: second compound 0.01 µM; first compound 0.000316 µM; active compounds read low
Each entry below lists one item and its recorded viability, T/C value.
// return numeric value only (unit: %, not printed)

Output measured viability, T/C for this item: Cn1ncnc1[C@H]1c2n[nH]c(=O)c3cc(F)cc(c23)N[C@@H]1c1ccc(F)cc1 + COc1c(OCCCN2CCOCC2)ccc2c3n(c(=NC(=O)c4cnc(N)nc4)nc12)CCN3
91.8

Give viability, T/C for Cn1ncnc1[C@H]1c2n[nH]c(=O)c3cc(F)cc(c23)N[C@@H]1c1ccc(F)cc1 + CC(Nc1ccc2c(c1)OCCn1cc(N3C(=O)OCC3C(F)F)nc1-2)C(N)=O
114

Provide only the value of recorded viability, T/C for CC(C)n1nc(-c2ccc3oc(N)nc3c2)c2c(N)ncnc21 + CC(Nc1ccc2c(c1)OCCn1cc(N3C(=O)OCC3C(F)F)nc1-2)C(N)=O
115

Answer with the recorded viability, T/C for the compound listed here: CC(C)n1nc(-c2ccc3oc(N)nc3c2)c2c(N)ncnc21 + COc1c(OCCCN2CCOCC2)ccc2c3n(c(=NC(=O)c4cnc(N)nc4)nc12)CCN3
114

Return reported viability, T/C. Input compound: CC(=O)c1c(C)c2cnc(Nc3ccc(N4CCNCC4)cn3)nc2n(C2CCCC2)c1=O + COc1c(OCCCN2CCOCC2)ccc2c3n(c(=NC(=O)c4cnc(N)nc4)nc12)CCN3
109

Name the recorded viability, T/C of the item CC(=O)c1c(C)c2cnc(Nc3ccc(N4CCNCC4)cn3)nc2n(C2CCCC2)c1=O + CC(Nc1ccc2c(c1)OCCn1cc(N3C(=O)OCC3C(F)F)nc1-2)C(N)=O in your answer.
109

====

- Test system: K98450-129-R-PDC multicell spheroids, viability
- assayOverview: Anticancer human tumor K98450-129-R-PDC cell line growth inhibition [PI3K];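 note: spheroids exposed to agents for seven days before read-out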
- condition: second compound 0.1 µM; first compound 0.1 µM; active compounds read low
Each record is given fulfilled if its reported viability, T/C is strictly below 90%. Records at or above 90% are given not fulfilled.

# count of solved cases: 4
molecule: C[C@@H](NC(=O)c1ncnc(N)c1Cl)c1ncc(C(=O)Nc2cc(C(F)(F)F)c(Cl)cn2)s1 + CC(Nc1ncnc2nc[nH]c12)c1cc2cccc(Cl)c2c(=O)n1-c1ccccc1
category: not fulfilled
//
molecule: Cn1ncnc1[C@H]1c2n[nH]c(=O)c3cc(F)cc(c23)N[C@@H]1c1ccc(F)cc1 + COc1c(OCCCN2CCOCC2)ccc2c3n(c(=NC(=O)c4cnc(N)nc4)nc12)CCN3
category: fulfilled
//
molecule: CCN1CCN(Cc2ccc(Nc3ncc(F)c(-c4cc(F)c5nc(C)n(C(C)C)c5c4)n3)nc2)CC1 + Cc1nc(NC(=O)N2CCCC2C(N)=O)sc1-c1ccnc(C(C)(C)C(F)(F)F)c1
category: not fulfilled
//
molecule: CCN1CCN(Cc2ccc(Nc3ncc(F)c(-c4cc(F)c5nc(C)n(C(C)C)c5c4)n3)nc2)CC1 + COc1c(OCCCN2CCOCC2)ccc2c3n(c(=NC(=O)c4cnc(N)nc4)nc12)CCN3
category: fulfilled

In the record for CC1(C)CCC(CN2CCN(c3ccc(C(=O)NS(=O)(=O)c4ccc(NCC5CCOCC5)c([N+](=O)[O-])c4)c(Oc4cnc5[nH]ccc5c4)c3)CC2)=C(c2ccc(Cl)cc2)C1 + CC(Nc1ccc2c(c1)OCCn1cc(N3C(=O)OCC3C(F)F)nc1-2)C(N)=O , is viability, T/C less than 90%?
not fulfilled
